Measured values drawn from paper doi:10.1101/2021.09.27.462041 for this set.

molecular target: H3K9me3 11-mer histone H3 tail peptide; test: SPR
pKd: −log10 of the molar value.
assay_metric: pKd

{"columns": ["binder", "result_value"],
 "data": [
  ["DIDO3 PHD domain (domain or fragment) PNALYCICRQPHNNRFMICCDRCEEWFHGDCVGISEARGRLLERNGEDYICPNCTILQVQ", 7.65]
]}
